Ref: paper PMC11042244

Catalogue of pIC50 readings, one per entry.
- TARGET_SYSTEM: HNE (human neutrophil elastase) (Homo sapiens)
- Sequence (P08246 30-247 limits assumed): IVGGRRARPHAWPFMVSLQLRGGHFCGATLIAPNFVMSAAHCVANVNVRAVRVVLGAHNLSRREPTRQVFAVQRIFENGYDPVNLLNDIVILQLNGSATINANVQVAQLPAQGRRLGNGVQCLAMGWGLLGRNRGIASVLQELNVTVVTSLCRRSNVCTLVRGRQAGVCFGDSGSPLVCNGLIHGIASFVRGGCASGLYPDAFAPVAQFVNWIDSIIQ
- TEST_NAME: HNE inhibition assay (fluorogenic substrate, enzymatic)
- TEST_CONTEXT: mean ± SD of three independent experiments, N.A. = no inhibitory activity at the highest concentration tested (50 μM)
Scale note: pIC50 = -log10(concentration in M).

# annotated cases, reported pIC50 shown
COMPOUND: CC(C)C(=O)n1[se]c2ccccc2c1=O
pIC50: 5.92
//
COMPOUND: CC(C)(C)C(=O)n1[se]c2ccccc2c1=O
pIC50: 5.74
//
COMPOUND: CCCC(=O)n1[se]c2ccccc2c1=O
pIC50: 5.62
//
COMPOUND: CC(C)(C)C(=O)Oc1ccc(S(=O)(=O)n2[se]c3ccccc3c2=O)cc1
pIC50: 5.57
//
COMPOUND: COc1ccc(C(=O)n2[se]c3ccccc3c2=O)cc1
pIC50: 5.06
//
COMPOUND: O=C(C1CCCCC1)n1[se]c2ccccc2c1=O
pIC50: 4.62
//
COMPOUND: CCCCC(=O)n1[se]c2ccccc2c1=O
pIC50: 6.05
//
COMPOUND: O=C(C1CC1)n1[se]c2ccccc2c1=O
pIC50: 5.85
//
COMPOUND: O=C(c1ccccc1)n1[se]c2ccccc2c1=O
pIC50: 5.64
//
COMPOUND: Cc1cccc(C(=O)n2[se]c3ccccc3c2=O)c1
pIC50: 4.96

Reported pIC50 (HNE (human neutrophil elastase) (Homo sapiens)) for entry CCCCCC(=O)n1[se]c2ccccc2c1=O is 5.52

Reported pIC50 (HNE (human neutrophil elastase) (Homo sapiens)) for entry CC(=O)n1[se]c2ccccc2c1=O [4a, 2-Acetylbenzo[d][1,2]selenazol-3(2H)-one] is 5.11

Reported pIC50 (HNE (human neutrophil elastase) (Homo sapiens)) for entry CCC(=O)n1[se]c2ccccc2c1=O is 5.59

Reported pIC50 (HNE (human neutrophil elastase) (Homo sapiens)) for entry O=C(C1CCCC1)n1[se]c2ccccc2c1=O is 5.55
